System: SW684;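 further: growth inhibition of human SW684 cells, measured by a cell viability assay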
Assay: cells
Type: functional, cell-based, Homo sapiens
Conditions: sw684
Description: SANGER: Inhibition of human SW684 cell growth in a cell viability assay.
READOUT LABEL: IC50 (µM)

SEQUENCE CHAIN	READOUT LABEL	MEASURED RESULT
CISPLATIN	IC50	590

###

Tested on: LC4-1;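 further: growth inhibition of LC4-1 cells, read out with a cell viability assay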
Assay: cells
Format: functional, cell-based, Homo sapiens
Conditions: lc4-1
Description: SANGER: Inhibition of human LC4-1 cell growth in a cell viability assay.
pIC50: −log10 of the molar value.

SEQUENCE CHAIN	pIC50
BLEOMYCIN	4.95

###

Measured pIC50, listed per entry for reference.
Test system: SF-539;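 further: Read-out is a cell viability assay, with IC50 reflecting inhibition of cell growth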
Test: cells
Assay type: functional, cell-based, Homo sapiens
Conditions: Homo sapiens, SF-539
Description: SANGER: Inhibition of human SF539 cell growth in a cell viability assay.
pIC50: −log10 of the molar value.

COMPOUND	pIC50
COc1cc2ncn(-c3cc(OCc4ccccc4C(F)(F)F)c(C(N)=O)s3)c2cc1OC [GW843682X]	< 6.59
O=C(O)c1ccc(-c2c[nH]c3ncc(-c4ccccc4)cc23)cc1C1CCCC1	< 4.80
CC(C)CCN1c2nc(Nc3cc(F)c(O)c(F)c3)ncc2N(C)C(=O)C1C (stereo not drawn)	< 5.30
